# System Name: Cft1;Pfs2;Yth1;Fip1;Pap1;Cft2;Ysh1;Mpe1 (Saccharomyces cerevisiae;Saccharomyces …, UniProt Q06632;P42841;Q06102;P45976;P29468;Q12102;Q06224;P35728 …, |||||||)
# Test Method Notes: EMSA; CPFcore; EMSA: 50 nM RNA, 0.25-4.0 uM protein, protein diluted in 10 mM HEPES pH 7.9, 150 mM NaCl, 0.5 mM Mg(OAc)2, plus 1x loading dye (orange G, glycerol, EDTA); 30 min on ice; native 6% acrylamide/TBE PAGE
# Recorded Conditions: tags: ;3C-SII;3C-8H, untagged in CPFpol+Cft2;;SII (Pap1-SII) when alone, untagged in CPFpol and CPFcore;SII (Cft2-SII) when alone, untagged in CPFpol+Cft2 and CPFcore;;3C-SII (C-terminal) in Ysh1-Mpe1 complexes, copies: 1;2;1;1;1;1;1;1, label: 5'-FAM
Assay Readout: binding result

AAAAAAAAAAAAAAA (ssRNA) [A15] | binds
AAGAACGUUAUUUAUAUUUCAAAUUUUUCUUUUUU (ssRNA) [CYC1d EMSA probe] | binds
GGGGGGGGGGGGGGG (ssRNA) [G15] | binds
UUUUUUUUUUUUUUU (ssRNA) [U15] | no binding
CCCCCCCCCCCCCCC (ssRNA) [C15] | no binding

Please look at the following binder next.
// query Request the reported binding result associated with CGUUAUUUAUAUUUCAAAUUUUUCU (ssRNA) [CYC1f EMSA probe]
// result binds

Ref: paper PMC6436931
